biological target: human M2 receptor (Homo sapiens, UniProt P08172); conditions: read-out: Efficiency, boosting of the acetylcholine effect at EC20 acetylcholine concentration; M2-GIRK1/4 reporter cells
assay_metric: Emax (%)

- CC(C)(NC(=O)c1cn(-c2c(F)cc(F)cc2F)c2nc(N3C[C@@H](O)[C@H](O)C3)ccc2c1=O)C(F)(F)F [Example 403]: 100
- C[C@@H](O)CN(C)c1ccc2c(=O)c(C(=O)N[C@@H](C3CC3)C(F)(F)F)cn(-c3c(F)cc(F)cc3F)c2n1 [Example 494]: 78
- CC(NC(=O)c1cn(-c2c(F)cc(F)cc2F)c2nc(N3CCNC3=O)ccc2c1=O)C(F)(F)C(F)(F)F (racemic) [Example 540]: 90
- CC(C)(NC(=O)c1cn(-c2c(F)cc(F)cc2F)c2nc(N3CCNC3=O)ccc2c1=O)C(F)F [Example 614]: 94.5
- NC(=O)N1CCN(c2ccc3c(=O)c(C(=O)N[C@H](C4CC4)C(F)(F)F)cn(-c4c(F)cc(F)cc4F)c3n2)CC1 [Example 650]: 100
- C[C@@H]1CN(c2ccc3c(=O)c(C(=O)N[C@@H](C4CC4)C(F)(F)F)cn(-c4c(F)cc(F)cc4F)c3n2)C(=O)O1 [Example 444]: 100

###

target: human M2 receptor (Homo sapiens, UniProt P08172); details: read-out: Efficiency, boosting of the acetylcholine effect at EC20 acetylcholine concentration; M2-GIRK1/4 reporter cells
assay_metric: Emax (%)

- CN(C[C@H](O)CO)c1ccc2c(=O)c(C(=O)N[C@@H](C3CC3)C(F)(F)F)cn(-c3c(F)cc(F)cc3F)c2n1: 85.5
- COC(=O)[C@@H]1CN(c2ccc3c(=O)c(C(=O)N[C@@H](C4CC4)C(F)(F)F)cn(-c4c(F)cc(F)cc4F)c3n2)C(=O)O1: 100
- CC[C@H](NC(=O)c1cn(-c2c(F)cc(F)cc2F)c2nc(N3CCN(C(=O)OC)CC3)ccc2c1=O)C(F)(F)F: 94
- CC[C@H](NC(=O)c1cn(-c2c(F)cc(F)cc2F)c2nc(N3CCN(C)CC3)ccc2c1=O)C(F)(F)F: 89
- O=C(NC1(C(F)(F)F)CCC1)c1cn(-c2c(F)cc(F)cc2F)c2nc(N3C[C@@H](O)[C@H](O)C3)ccc2c1=O: 100
- CC1CC(=O)N(c2ccc3c(=O)c(C(=O)N[C@@H](C4CC4)C(F)(F)F)cn(-c4c(F)cc(F)cc4Cl)c3n2)C1 (mixture of isomers): 99
- CC(C)C(C)NC(=O)c1cn(-c2c(F)cc(F)cc2F)c2nc(N3C[C@@H](O)CC3=O)ccc2c1=O (stereo in doubt): 98.5
- O=C(NC(CC(F)(F)F)C1CC1)c1cn(-c2c(F)cc(F)cc2F)c2nc(N3C[C@@H](O)[C@H](O)C3)ccc2c1=O (mixture of isomers) [Example 438]: 99.5
- C[C@H](NC(=O)c1cn(-c2c(F)cc(F)cc2F)c2nc(N3C[C@@H](O)[C@H](O)C3)ccc2c1=O)C1CC1: 89
- O=C(N[C@@H](C1CC1)C(F)(F)F)c1cn(-c2c(F)cc(F)cc2F)c2nc(N3C[C@H](C(=O)O)OC3=O)ccc2c1=O: 66.5
- CC[C@@H](NC(=O)c1cn(-c2ccc(F)cc2F)c2nc(N3C[C@@H](O)[C@H](O)C3)ccc2c1=O)C(F)(F)F: 100
- O=C(N[C@@H](C1CC1)C(F)(F)F)c1cn(-c2c(F)cc(F)cc2F)c2nc(N3CC4(CC4)NC3=O)ccc2c1=O: 78.5
- O=C(NC12CC(C1)C2)c1cn(-c2c(F)cc(F)cc2F)c2nc(N3CC(O)C4(CC4)C3)ccc2c1=O (racemic) [Example 626]: 93.5

###

biological target: UniProtKB P08172; format: cell-based; details: shift in the acetylcholine dose-response curve (Allosteric EC50 shift, GraphPad PRISM); α >1 = positive cooperativity
assay_metric: Cooperativity (alpha factor)

(A) CC[C@@H](NC(=O)c1cn(-c2ccc(F)cc2F)c2nc(N3CCC(C)(OC)C3)ccc2c1=O)C(F)(F)F (mixture of isomers)
(B) O=C(NC(c1c(F)cccc1F)C(F)(F)F)c1cn(-c2ccc(F)cc2F)c2nc(N3CCC(O)CC3=O)ccc2c1=O (single isomer, unassigned)
(C) O=C(NC(c1ccccc1Cl)C(F)(F)F)c1cn(-c2ccc(F)cc2F)c2nc(N3CCCC(O)C3=O)ccc2c1=O (racemic)
(D) CC[C@@H](NC(=O)c1cn(-c2ccc(F)cc2F)c2nc(N3CC[C@@H](F)[C@H](O)C3)ccc2c1=O)C(F)(F)F
(E) CC[C@@H](NC(=O)c1cn(-c2ccc(F)cc2F)c2nc(N3CCC3=O)ccc2c1=O)C(F)(F)F
In: Put the compounds in ascending order of Cooperativity (alpha factor). Form field (ranking): labels in requested order.
Out: E, A, C, D, B

(I) O=C(NC(c1ccccc1Cl)C(F)(F)F)c1cn(-c2ccc(F)cc2F)c2nc(N3C[C@@H](O)CC3=O)ccc2c1=O (mixture of isomers) [Example 211]
(II) CC[C@H](NC(=O)c1cn(-c2ccccc2F)c2nc(N(C)C)ccc2c1=O)C(F)(F)F
(III) CC(COC(F)(F)F)NC(=O)c1cn(-c2ccc(F)cc2F)c2nc(N3CC[C@H](F)C3)ccc2c1=O (single isomer, unassigned) [Example 228]
In: Endpoint returns the given compounds ordered by ascending Cooperativity (alpha factor). Output the labels ranked as instructed.
Out: II, III, I
(II: 8, III: 12, I: 35)

###

Target: human M2 receptor (Homo sapiens)
Sequence (P08172 1-466): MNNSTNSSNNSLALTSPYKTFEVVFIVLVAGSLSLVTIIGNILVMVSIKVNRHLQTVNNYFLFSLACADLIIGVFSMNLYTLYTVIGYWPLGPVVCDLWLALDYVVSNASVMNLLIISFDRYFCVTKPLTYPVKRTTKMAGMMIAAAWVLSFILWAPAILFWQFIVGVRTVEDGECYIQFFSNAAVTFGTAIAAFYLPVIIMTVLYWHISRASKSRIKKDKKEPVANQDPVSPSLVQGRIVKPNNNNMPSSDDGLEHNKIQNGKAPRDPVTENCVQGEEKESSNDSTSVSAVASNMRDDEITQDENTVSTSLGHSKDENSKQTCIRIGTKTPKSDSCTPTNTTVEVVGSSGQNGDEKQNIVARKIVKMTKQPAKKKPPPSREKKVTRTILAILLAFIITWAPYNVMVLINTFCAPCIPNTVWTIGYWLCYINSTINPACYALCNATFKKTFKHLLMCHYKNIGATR
Type: cell-based
Settings: shift of acetylcholine dose-response curve (Allosteric EC50 shift); α >1 = positive cooperativity
assay_metric: Cooperativity (alpha factor)

Sample records with Cooperativity (alpha factor):
- CC[C@H](NC(=O)c1cn(-c2c(F)cc(F)cc2Cl)c2nc(N3C[C@@H](O)CC3=O)ccc2c1=O)C(F)(F)F [Example 398]: 26
- CCC(NC(=O)c1cn(-c2c(F)cc(F)cc2F)c2nc(N3C[C@@H](O)CC3=O)ccc2c1=O)C(C)C (mixture of isomers): 44
- CC[C@H](NC(=O)c1cn(-c2c(F)cc(F)cc2F)c2nc(N3C[C@@H](C)NC3=O)ccc2c1=O)C(F)(F)F: 32
- CC[C@@H](NC(=O)c1cn(-c2ccc(F)cc2F)c2nc(N3C[C@@H](O)[C@H](O)C3)ccc2c1=O)C(F)(F)F: 30
- CC(NC(=O)c1cn(-c2c(F)cc(F)cc2F)c2nc(N3CCNC3=O)ccc2c1=O)C(F)(F)C(F)(F)F (racemic) [Example 542]: 36
- CC1CCN(c2ccc3c(=O)c(C(=O)N[C@@H](C)C(F)(F)F)cn(-c4c(F)cc(F)cc4Cl)c3n2)C1=O (mixture of isomers): 7
- C[C@@H]1CN(c2ccc3c(=O)c(C(=O)NC(C)(C)C(F)F)cn(-c4c(F)cc(F)cc4F)c3n2)C(=O)N1: 25
- CC[C@@H](COC(F)(F)F)NC(=O)c1cn(-c2c(F)cc(F)cc2F)c2nc(N3C[C@@H](C)NC3=O)ccc2c1=O (single isomer, unassigned) [Example 454]: 28
- CC1(C)CN(c2ccc3c(=O)c(C(=O)N[C@@H](C4CC4)C(F)(F)F)cn(-c4c(F)cc(F)cc4F)c3n2)C(=O)N1: 21
- CC(C)C[C@@H](NC(=O)c1cn(-c2c(F)cc(F)cc2F)c2nc(N3C[C@@H](O)[C@@H](O)C3)ccc2c1=O)C(F)(F)F: 36

(A) C[C@@H]1CN(c2ccc3c(=O)c(C(=O)N[C@@H](C4CC4)C(F)(F)F)cn(-c4c(F)cc(F)cc4F)c3n2)C(=O)N1
(B) O=C(NC(C1CCC1)C(F)(F)F)c1cn(-c2c(F)cc(F)cc2F)c2nc(N3C[C@@H](O)CC3=O)ccc2c1=O (single isomer, unassigned) [Example 506]
(C) C[C@@H](O)CN(C)c1ccc2c(=O)c(C(=O)N[C@@H](C3CC3)C(F)(F)F)cn(-c3c(F)cc(F)cc3F)c2n1
In: Arrange these compounds by their Cooperativity (alpha factor), starting with the largest number. Please express your ranking as an ordered list of the labels.
Out: B, A, C
(B: 57, A: 29, C: 20)
